- test: A549 NSCLC cell proliferation inhibitors – ATP luminescence, human non-small cell lung line, primary screen (AID 371);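 further: compound exposure lasted 72 h before the ATP read; 0% = untreated cell signal and 100% = no luminescence left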
- run-parameters: at 10 µM, active compounds read high
Screen size: about 3,300 compounds; about 280 (8.5%) were called active. The entries come from a sample that favours actives as a whole.
measured-metric: growth inhibition (%)
Numeric answer only, unit % assumed.

Exercise: Please give the measured growth inhibition for this compound: `O=C(NC1CCCCC1)[C@H](O)[C@@H](O)C(=O)NC1CCCCC1`
Key: -22.3

Exercise: Please give the measured growth inhibition for this compound: `Cc1ccc2c(c1)[C@@H]1CN(C)CC[C@@H]1N2S(=O)(=O)c1ccc(F)cc1`
Key: 10.7

Exercise: Please give the measured growth inhibition for this compound: CC1CN(C2CCN(S(=O)(=O)c3ccc4ccccc4c3)CC2)CC(C)O1 (stereo not drawn)
Key: 8.58

Exercise: Please give the measured growth inhibition for this compound: COc1ccc(N2CCN(C3CC(=O)NC3=O)CC2)cc1 (stereo not drawn)
Key: 1.16

Exercise: Please give the measured growth inhibition for this compound: `Nc1ncnc2c1ncn2[C@@H]1O[C@H](CO)[C@@H](O)[C@H]1O`
Key: 1.29

Exercise: Please give the measured growth inhibition for this compound: CCOc1ccc2nc(NC(NC(=O)CC)(C(=O)OC)C(F)(F)F)sc2c1 (stereo not drawn)
Key: 20.7

Exercise: Please give the measured growth inhibition for this compound: `NC(=O)/C(=N\O)c1ccccc1`
Key: 2.31

Exercise: Please give the measured growth inhibition for this compound: `CCc1cc2c(=O)c(-c3nc4ccccc4[nH]3)coc2cc1OC(=O)N1CCOCC1`
Key: -4.96

Exercise: Please give the measured growth inhibition for this compound: `COC(=O)CNc1nc(-c2cccnc2)nc2ccccc12`
Key: 6.85

Exercise: Please give the measured growth inhibition for this compound: `COc1cccc(-c2nc(NC(C)(C)C)c3ccccc3n2)c1O`
Key: 20.9

Exercise: Please give the measured growth inhibition for this compound: `CCCCc1nc2n[nH]c(N)c2c2c1CCCC2`
Key: 12.1

Exercise: Please give the measured growth inhibition for this compound: `CSc1nc(N)nc(SCC(=O)OC(C)C)c1C#N`
Key: 17

Exercise: Please give the measured growth inhibition for this compound: `O=C(Nc1ccccn1)c1ccc(=O)[nH]n1`
Key: 5.88

Exercise: Please give the measured growth inhibition for this compound: `Nc1nc(F)nc2c1ncn2[C@@H]1O[C@H](CO)[C@@H](O)[C@@H]1O`
Key: 73.1

Exercise: Please give the measured growth inhibition for this compound: `C=CCc1cccc(CNc2nc3ccccc3n2C(C)C)c1O`
Key: 74.7

Exercise: Please give the measured growth inhibition for this compound: CCC(C)Nc1nc(-c2cccc(OC)c2O)nc2ccccc12 (stereo not drawn)
Key: 71.5

Exercise: Please give the measured growth inhibition for this compound: `Cc1ccc2cc(CNC(C)C)c(=O)[nH]c2c1`
Key: 2.25

Exercise: Please give the measured growth inhibition for this compound: `C=CCc1cccc(/C=N/n2cnnc2)c1O`
Key: 2.3

Exercise: Please give the measured growth inhibition for this compound: `OCCNc1nc(-c2ccccc2)c2ccccc2n1`
Key: -2.09

Exercise: Please give the measured growth inhibition for this compound: `CC1(C)Cc2nc3sc4c(N(CCO)CCO)ncnc4c3cc2CO1`
Key: 2.92

Exercise: Please give the measured growth inhibition for this compound: `COc1ccccc1OCC(=O)Nc1ccc(S(=O)(=O)Nc2cc(C)nc(C)n2)cc1`
Key: 5.4

Exercise: Please give the measured growth inhibition for this compound: `CCOC(=O)c1ccc(CSc2ncn[nH]2)o1`
Key: -2.33

Exercise: Please give the measured growth inhibition for this compound: `Cc1ccc(OCC(=O)N(C)CCc2ccccn2)cc1`
Key: -1.84

Exercise: Please give the measured growth inhibition for this compound: COc1ccc(/C(O)=C2/C(=O)C(=O)N(CCCN(C)C)C2c2ccc(C)o2)cc1Cl (stereo not drawn)
Key: 1.2

Exercise: Please give the measured growth inhibition for this compound: `CCOC(=O)C(C(=O)OCC)N(C#N)c1nc(SC)nc(N(C)C)n1`
Key: -4.38

Exercise: Please give the measured growth inhibition for this compound: `CC(=O)NC(=O)Nc1sc(=S)n(C)c1C`
Key: -19.1

Exercise: Please give the measured growth inhibition for this compound: `CCCCn1c(O)c(C=NCCCN(C)C)c(=O)[nH]c1=O`
Key: -0.32

Exercise: Please give the measured growth inhibition for this compound: CNCCC(Oc1ccc(C(F)(F)F)cc1)c1ccccc1 (stereo not drawn)
Key: 91.3

Exercise: Please give the measured growth inhibition for this compound: COC(=O)C(NC(=O)c1ccccc1)(Nc1nc(C)cs1)C(F)(F)F (stereo not drawn)
Key: 4.51

Exercise: Please give the measured growth inhibition for this compound: NC(=O)C(c1ccccc1)C1CCCC1 (stereo not drawn)
Key: 2

Exercise: Please give the measured growth inhibition for this compound: `COc1ccc(NC(=O)Nc2cccc(C(=O)N3CCOCC3)c2)cc1OC`
Key: 1.01

Exercise: Please give the measured growth inhibition for this compound: `O=c1c(-c2ccc3c(c2)OCCO3)c(C(F)(F)F)oc2cc(O)cc(O)c12`
Key: 71.1

Exercise: Please give the measured growth inhibition for this compound: `COC(=O)c1[nH]c2cc(OC)ccc2c1NC(=O)CN1CCC(C(N)=O)CC1`
Key: -2.17

Exercise: Please give the measured growth inhibition for this compound: `COc1cccc(-c2nc(NCc3ccco3)c3ccccc3n2)c1O`
Key: 9.14

Exercise: Please give the measured growth inhibition for this compound: CCOC(=O)CSC1=C(C#N)C(c2ccc(C)cc2)C(C(=O)OC)C(=O)N1 (stereo not drawn)
Key: 8.41

Exercise: Please give the measured growth inhibition for this compound: `Nc1nc(Cl)nc2c1ncn2[C@@H]1O[C@H](CO)[C@@H](O)[C@H]1O`
Key: 33.3

Exercise: Please give the measured growth inhibition for this compound: `COc1cccc(-c2nc(NC(C)C)c3ccccc3n2)c1O`
Key: 77.9

Exercise: Please give the measured growth inhibition for this compound: `N#CCSc1nc2c(c(=O)n1Cc1ccco1)C1(CCCC1)Cc1ccccc1-2`
Key: 30.2

Exercise: Please give the measured growth inhibition for this compound: `O=C(NC1CCCCC1)Nn1c(-c2ccccc2)nc2ccccc2c1=O`
Key: 5.81

Exercise: Please give the measured growth inhibition for this compound: `O=c1c(O)c(-c2ccc(O)cc2O)oc2cc(O)cc(O)c12`
Key: 4.21

Exercise: Please give the measured growth inhibition for this compound: `Cc1nn(CC(=O)N2CCOCC2)c(=O)c2ccccc12`
Key: 2.14

Exercise: Please give the measured growth inhibition for this compound: CC1(C)C2CCC1(C)C(NC(=O)CCN1CCCCC1)C2 (stereo not drawn)
Key: 7.81

Exercise: Please give the measured growth inhibition for this compound: `COCCNc1nc2c(c(=O)n(C)c(=O)n2C)n1Cc1cccc(C(F)(F)F)c1`
Key: 36.4
